// provenance: the supplement of paper PMC11417369

system: PfAP2-I AP2 domain 3 (GST-tagged); test: gcPBM binding intensity (ln(normalized median fluorescence intensity)); higher = stronger DNA binding
In all, about 25,000 sequences were measured (“ln(normalized median fluorescence intensity)”: median about 7.9, highest 2% from about 11 on). For the sample, the highest values were picked, then their nearest neighbours and some sequences at random.
# cutoff 10 applies to gcPBM binding intensity (ln); >= gives label 1, < gives label 0

GTTCCAGGCATTCGTGCGCACAAATAGAAACAATTA [GTGCAC_site9824]; label 1
ATTTATATGCACCATTGTACGTTTTATAAAGTTTGG [XGTACX_site3755]; label 1
CATTTATATAAAAGAACACACATATAAAATATTATT [CACACA_site3601]; label 0
AAGATATCTAAGGAAATTAAACTACCAAAATATATA [TGCATGCA_negctrl_site338]; label 0
ATATTACACATATATGCACACATTGTAGTTATTTAT [CACACA_site8843]; label 0
ATAAAATATATATGCACACACATATATATTTCATAC [CACACA_site3547]; label 0
AACATTTATATAAAAGAACACACATATAAAATATTA [CACACA_site9199]; label 0
TTTTTATTTTCATATGTGCACTTATATATATATATA; label 1
TATATAAATTTAATAACACACATATAAAAATGAATT [CACACA_site2366]; label 0
TTTAGCACAAACAAAAAAAAAATAGAAAAAAATATA [CACACA_negctrl_site1772]; label 0
ATATATATTATCATTGTGCACTTATTTATATACCTT; label 1
AAAATTTAATATAATGCACACATAAAAAAAAAAAAA [CACACA_site7923]; label 1
TTATCATTTGCCATTGTGCACTTATATGCTCACATT; label 1
ATAATTTCATAATACGTGCACATAATATATAAAAAA; label 1
AATTTAATATAATGCACACATAAAAAAAAAAAAAAA [CACACA_site123]; label 1
GCACACATATAATAATGTACATATATATATTTAAAA [XGTACX_site4561]; label 0
TTTTCATTCTTTTCCTTTGATTTACAATAGTATATT [GTGCAC_negctrl_site687]; label 0
TATCATTTATATATGTGTACTTATTTATTTATTTAT [XGTACX_site7961]; label 0
TTAAAAGAATATAATGCACACATTATTTTATTTTAT [CACACA_site3772]; label 1
